Reference for the values: patent US20200262868A1

Molecular target: T1, human NK2 Receptor (human, UniProt P21452 1-398)
T1 sequence (looked up): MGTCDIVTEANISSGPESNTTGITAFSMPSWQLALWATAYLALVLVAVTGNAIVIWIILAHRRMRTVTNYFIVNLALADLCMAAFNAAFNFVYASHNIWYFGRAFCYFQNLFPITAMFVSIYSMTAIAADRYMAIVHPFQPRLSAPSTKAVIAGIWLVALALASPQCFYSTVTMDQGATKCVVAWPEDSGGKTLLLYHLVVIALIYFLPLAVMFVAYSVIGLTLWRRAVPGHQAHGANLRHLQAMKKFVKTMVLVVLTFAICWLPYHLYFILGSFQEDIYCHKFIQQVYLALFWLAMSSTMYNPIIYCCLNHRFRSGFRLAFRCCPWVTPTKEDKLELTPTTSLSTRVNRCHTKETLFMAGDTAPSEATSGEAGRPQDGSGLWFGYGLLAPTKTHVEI
Test: cell-based or functional assay
Where no end group is shown, it is not given here. [ ]: non-standard residue; d: D form. NMeL = CN[C@@H](CC(C)C)C(=O)O; Nle = CCCC[C@H](N)C(=O)O
Assay Metric: hNK2 selectivity ratio (EC50 hNK1R/hNK2R) (ratio)
State just the number; it will be interpreted in ratio.

Please review the following examples before continuing.
binder="DRFVGLM-NH2 (synthetic heptapeptide analog of neurokinin A, Fmoc solid-phase synthesis; also called Compound H; Cmpd H) [Heptapeptide analog H, Asp-Arg-Phe-Val-Gly-Leu-Met-NH2]" unit_tag=ratio result=0.8
binder="DKFVALM (HELM PEPTIDE1{D.K.F.V.[bAla].L.M.[am]}$$$$V2.0; N-terminus assumed; SMILES CSCC[C@H](NC(=O)[C@H](CC(C)C)NC(=O)CCNC(=O)[C@@H](NC(=O)[C@H](Cc1ccccc1)NC(=O)[C@H](CCCCN)NC(=O)[C@@H](N)CC(=O)O)C(C)C)C(N)=O, synthetic heptapeptide analog of neurokinin A, Fmoc solid-phase synthesis; also called Compound E; Cmpd E) [Heptapeptide analog E, Asp-Lys-Phe-Val-(β-Ala)-Leu-Met-NH2]" unit_tag=ratio result=36
binder="DRFVG[NMeL][Nle]-NH2 (synthetic heptapeptide analog of neurokinin A, Fmoc solid-phase synthesis; also called Compound B; Cmpd B) [Heptapeptide analog B, Asp-Arg-Phe-Val-Gly-(NMe-Leu)-Nle-NH2]" unit_tag=ratio result=70

Then this binder:
// lookup hNK2 selectivity ratio (EC50 hNK1R/hNK2R) for DKFVALX (HELM PEPTIDE1{D.K.F.V.[bAla].L.[Nle].[am]}$$$$V2.0; N-terminus assumed; SMILES CCCC[C@H](NC(=O)[C@H](CC(C)C)NC(=O)CCNC(=O)[C@@H](NC(=O)[C@H](Cc1ccccc1)NC(=O)[C@H](CCCCN)NC(=O)[C@@H](N)CC(=O)O)C(C)C)C(N)=O, synthetic heptapeptide analog of neurokinin A, Fmoc solid-phase synthesis; also called Compound G; Cmpd G) [Heptapeptide analog G, Asp-Lys-Phe-Val-(β-Ala)-Leu-Nle-NH2]
26
